# test_system: HLA-DR (DRA1*01:01 / DRB1*04:04), soluble knob-into-hole Fc heterodimer (human)
# assay_notes: ELISA
attribute_measured: Ki (nM)
Numbers only; they are read as nM.

Q. Need Ki, item KPVSKMRMATPLLMQALPM [human CLIP peptide, unlabelled competitor]
A. 7.75
